These entries and their values trace back to PubChem BioAssay (NCI).

- System: OVCAR-4 ovarian
- method summary: NCI-60 one-dose screen, 48 h (100 = growth as untreated, 0 = no growth, -100 = all killed)
- study conditions: 10 µM
About 83,000 compounds went through this panel and 20% of them were active in at least one assay; those are over-represented in the sample as a whole.
compounds and their reported growth
Report the value in % with no unit label.

Task: Tell me the measured growth of CC(=O)NC(N)=S , please.
Result: 111

Task: Query (compound): CCOC(=O)c1[nH]c(C)c(C(C)=O)c1C ; field requested: growth
Result: 86.8

Task: What value of growth has been recorded for this entry: Cc1cc(C(O)(c2ccc(Nc3ccccc3)cc2)c2ccc(Nc3ccc(S(=O)(=O)O)cc3)cc2)ccc1N (stereo unspecified)
Result: -5.82

Task: Entry O=[N+]([O-])c1ccc(N=Nc2ccccc2)cc1 has what growth?
Result: 107

Task: May I ask what growth has been recorded for CC1OC(Oc2c(-c3ccc(O)c(O)c3)oc3cc(O)cc(O)c3c2=O)C(O)C(O)C1O (stereo unspecified) ?
Result: 105

Task: growth lookup needed for O=C(CS)Nc1ccc2ccccc2c1 , thanks.
Result: 116
